Data origin, for the record: patent US20100280227A1

target: T1, human BR3 expressed on cells (human, UniProt Q96RJ3 1-184); test: BJAB cells, direct binding
T1 construct: whole, on cells; also called BR3 on BJAB cells; cell surface BR3
Hi there, I'd appreciate the recorded pEC50 for every entry that follows.
Numbers only, as −log10 of the molar value.

V3-1m (antibody, mouse IgG2a, V domains shown, also called mV3-1; V3-1 (IgG)) VH: EVQLVESGGGLVQPGGSLRLSCAASGFTISSNSIHWVRQAPGKGLEWVAWITPSDGNTDYADSVKGRFTISADTSKNTAYLQMNSLRAEDTAVYYCARRVCYNRLGVCAGGMDYWGQGTLVTVSS VL: DIQMTQSPSSLSASVGDRVTITCRASQDVSTAVAWYQQKPGKAPKLLIYSASFLYSGVPSRFSGSGSGTDFTLTISSLQPEDFATYYCQQSRITPPTFGQGTKVEIKR :: 8.47
murine monoclonal antibody 11G9 (antibody, V domains shown, mouse hybridoma IgG; also called mu11G9) VH: DVQLQESGPSLVKPSQTLSLTCSVTGDSITSGYWNWIRKFPGNKLEYMGYISYSGSTYYNPSLKSRISITRDTSKNQFYLQLLSVTTEDTATYYCAGLDGLYWYFDVWGAGTLVTVSS VL: DIVMTQTPLSLPVSLGDQASISCRSSQSLVHSNGNTYLHWYLQKPGQSPKLLIYKVSNRFSGVPDRFSGSGSGTDFTLKISRVEAEDLGVYFCSQSTHVPPFTFGSGT :: 9.72
murine monoclonal antibody 2.1 (antibody, V domains shown, mouse hybridoma IgG; also called 2.1 IgG; mu2.1) VH: EVQLQESGPSLVKPSQTLSLTCSVTGDSITRGYWNWIRKFPGNKLEFMGYINYSGTTYYNPSLKSRISITRDTSKNQYYLQLNSVTTEDTATYYCATPHTYGAMDYWGQGTTLTVSA VL: DIVLTQSPVSLAVSLGQRATISCRASESVDDYGISFMHWYQQKPGQPPKLLIYRASDLESGIPARFSGSGSGTDFTLTINPVETDDVAIYYCQQTSKDPWTFGGGT :: 9.80

With those in mind, consider the next binder.
Lookup: Look up and state reported pEC50 for murine monoclonal antibody 9.1 (antibody, V domains shown, mouse hybridoma IgG; also called 9.1 IgG; mu9.1) VH: EVKLVESGGGLVQPGGSLRLSCAISGFTVTAYYMSWVRQPPGKALEWLGFIRDKANGYTTEYNPSVKGRFTISRDNSQSIFYLQMNTLRAEDSATYYCAQVRRALDYWGQGTTVTVSA VL: DIVMSQSPSSLAVSVGEKVTMSCKSSQSLLYSSNQNNYLAWYQQKPGQSPKLLIYWASTRESGVPDRFTGSGSGTDFTLTISSVKAEDLAVYYCQQYYTYPYTFGGGT
Found: 9.27
